target: UniProt:Q13191; assay: Binding affinity towards N-terminal biotinylated Avi-tagged human CBL-B (36 to 427 residues) measured by surface plasmon resonance assay
Sequence (Q13191 whole entry, the tested form may be a part): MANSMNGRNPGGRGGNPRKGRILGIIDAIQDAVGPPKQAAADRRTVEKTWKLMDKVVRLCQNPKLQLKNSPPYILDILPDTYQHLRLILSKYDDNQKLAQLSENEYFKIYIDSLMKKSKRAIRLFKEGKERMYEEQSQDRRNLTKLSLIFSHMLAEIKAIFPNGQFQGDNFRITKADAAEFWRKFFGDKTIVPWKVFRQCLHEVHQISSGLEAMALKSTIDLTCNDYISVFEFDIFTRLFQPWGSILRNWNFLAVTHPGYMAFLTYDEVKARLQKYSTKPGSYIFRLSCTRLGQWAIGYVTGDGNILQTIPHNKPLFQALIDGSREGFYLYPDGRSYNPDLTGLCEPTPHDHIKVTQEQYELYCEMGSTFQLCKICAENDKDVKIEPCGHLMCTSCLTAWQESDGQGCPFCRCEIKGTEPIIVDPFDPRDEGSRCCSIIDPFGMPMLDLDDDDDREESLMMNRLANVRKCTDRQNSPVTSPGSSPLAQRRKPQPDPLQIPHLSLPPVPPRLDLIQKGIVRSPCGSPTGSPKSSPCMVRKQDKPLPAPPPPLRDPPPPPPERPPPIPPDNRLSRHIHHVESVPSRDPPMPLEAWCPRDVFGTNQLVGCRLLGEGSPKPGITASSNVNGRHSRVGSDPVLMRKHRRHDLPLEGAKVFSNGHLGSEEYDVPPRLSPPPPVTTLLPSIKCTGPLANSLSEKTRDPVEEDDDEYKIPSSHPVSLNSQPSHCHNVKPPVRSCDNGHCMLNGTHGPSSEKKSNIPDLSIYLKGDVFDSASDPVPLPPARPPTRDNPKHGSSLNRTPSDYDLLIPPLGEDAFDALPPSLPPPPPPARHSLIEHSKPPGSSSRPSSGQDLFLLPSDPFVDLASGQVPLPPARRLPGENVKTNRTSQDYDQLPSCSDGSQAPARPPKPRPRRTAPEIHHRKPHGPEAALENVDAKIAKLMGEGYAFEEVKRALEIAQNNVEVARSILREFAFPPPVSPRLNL
pKd: −log10 of the molar value.
REPORTED PROPERTY: pKd

pKd measured on C[C@@H](Cc1nncn1C)c1ccnc(N2Cc3c(cccc3C(F)(F)F)C2=O)c1 = < 5.00

pKd measured on CC(C)c1cccc(C(=O)Nc2cccc([C@H](C)Sc3nncn3C)c2)c1 = < 5.00

pKd measured on CC(Sc1nncn1C)c1cccc(NC(=O)c2ccc3ncccc3c2)c1 (stereo unspecified) = < 5.00

pKd measured on C[C@H](Cc1nncn1C)c1cccc(N2Cc3c(cc(C(=O)N4CC[C@H](O)C4)cc3C(F)(F)F)C2=O)c1 = > 7.00

pKd measured on Cc1[nH]ncc1-c1cc2c(c(C(F)(F)F)c1)CN(c1cccc([C@H](C)Cc3nncn3C)c1)C2=O = > 7.00

pKd measured on C[C@H](Cc1nncn1C)c1cccc(N2Cc3c(cc(CN4CC(F)C4)cc3C(F)(F)F)C2=O)c1 = > 7.00

pKd measured on C[C@H](Cc1nncn1C)c1cccc(N2Cc3c(cc(CN4CC[C@H](F)C4)cc3C(F)(F)F)C2=O)c1 = > 7.00

pKd measured on C[C@H](Cc1nncn1C)c1cccc(NC(=O)c2cc(C(=O)N3CC[C@H](O)C3)cc(C(F)(F)F)n2)c1 = > 7.00

pKd measured on Cc1nc2cc(C(C)Sc3nncn3C)cc(N)c2o1 (stereo unspecified) = ≤ 5.52

pKd measured on CCn1cnnc1C[C@H](C)c1cccc(NC(=O)c2cc(S(C)(=O)=O)cc(C3CC3)n2)c1 = ≤ 5.52

pKd measured on C[C@H](Cc1nncn1C)c1cccc(N2Cc3c(cc([C@@H](C)N4CC[C@H](F)C4)cc3C(F)(F)F)C2=O)c1 = > 7.00

pKd measured on Cn1cnnc1C(F)(F)[C@](C)(F)c1cccc(N2Cc3c(cc(CN4CCC(F)(F)C4)cc3C(F)(F)F)C2=O)c1 = > 7.00

pKd measured on C[C@H](Sc1nncn1C)c1cccc(NC(=O)c2cc3cc(OCC(=O)O)ccc3cn2)c1 = < 5.00

pKd measured on Cn1cnnc1CC1(c2cccc(N3Cc4c(cc(CN5CCC(F)(F)C5)cc4C(F)(F)F)C3=O)c2)COC1 = > 7.00

pKd measured on C[C@H](Cc1nncn1C)c1cccc(N2Cc3c(cc(N(C)[C@H]4CCNC4)cc3C(F)(F)F)C2=O)c1 = > 7.00

pKd measured on C[C@@H](Sc1nncn1C)c1cccc(NC(=O)c2cc(C(=O)N3CCC(O)C3)ccn2)c1 (single isomer, unassigned) = < 5.00

pKd measured on C[C@H](Sc1nncn1C)c1cccc(NC(=O)c2ccc3ccccc3n2)c1 = ≤ 6.00

pKd measured on COC1CN(Cc2cc3c(c(C(F)(F)F)c2)CN(c2cccc([C@@](C)(F)C(F)(F)c4nncn4C)c2)C3=O)C1 = > 7.00

pKd measured on COc1ccc(C(=O)Nc2cccc(C(C)Sc3nncn3C)c2)cc1 (stereo unspecified) = < 5.00

pKd measured on CC(O)c1cc2c(c(C(F)(F)F)c1)CN(c1cccc([C@H](C)Cc3nncn3C)c1)C2=O (stereo partly specified) = > 7.00

pKd measured on C[C@H](Cc1nncn1C)c1cccc(N2Cc3c(cc(CN4CC(O)C(F)(F)C4)cc3C(F)(F)F)C2=O)c1 (stereo partly specified) = > 7.00

pKd measured on C[C@H](Cc1nncn1C)c1cccc(N2Cc3c(cc(CN4CC(O)C4)cc3C(F)(F)F)C2=O)c1 = > 7.00

pKd measured on Cn1cnnc1[C@H](F)C1(c2cccc(N3Cc4c(cc(CN5CCC(F)CC5)cc4C(F)(F)F)C3=O)c2)COC1 = > 7.00

pKd measured on Cc1cnc(C(=O)Nc2cccc([C@H](C)Sc3nncn3C)c2)cc1C(F)(F)F = < 5.00

pKd measured on CC(c1cc2c(c(C(F)(F)F)c1)CN(c1cccc([C@H](C)Cc3nncn3C)c1)C2=O)N1CC[C@H](O)C1 (stereo partly specified) = > 7.00

pKd measured on Cc1n[nH]c(C)c1-c1cc2c(c(C(F)(F)F)c1)CN(c1cccc([C@H](C)Cc3nncn3C)c1)C2=O = > 7.00

---

assay: Induction of anti-CD3 antibodies-stimulated human T cell activation at 1 uM assessed fold increase in CD25 expression measured by ELISA assay; format: functional, T cell line; note: reference of the scale not given here
REPORTED PROPERTY: fold change (FC)

Below are worked cases with known answers.
Cc1cc(C(=O)Nc2cccc([C@H](C)Cc3nncn3C)c2)nc(C2CC2)n1    >=1.001
C[C@H](Cc1nncn1C)c1cccc(N2Cc3c(cc([C@H](C)N4CC[C@H](F)C4)cc3C(F)(F)F)C2=O)c1    >=1.001
Cn1cnnc1CC1(c2cccc(N3Cc4c(cc(CN5Cc6ccccc6C5)cc4C(F)(F)F)C3=O)c2)COC1    >=1.001
Cc1[nH]cnc1CC(C)c1cccc(N2Cc3c(cccc3C(F)(F)F)C2=O)c1 (stereo not given)    <=0.6
COc1cccc(C(=O)Nc2cccc([C@H](C)Sc3nncn3C)c2)n1    <=0.6

fold change (FC) measured on C[C@@H](c1cc2c(c(C(F)(F)F)c1)CN(c1cccc(C3(Cc4nncn4C)COC3)c1)C2=O)N1CC(C)(F)C1 = >=1.001

fold change (FC) measured on C[C@H](Cc1nncn1C)c1cc(C2CC2)nc(N2Cc3c(cccc3C(F)(F)F)C2=O)c1 = 0.801

fold change (FC) measured on C[C@H](Cc1nncn1C)c1cc(OCC(F)F)nc(N2Cc3c(cccc3C(F)(F)F)C2=O)c1 = 0.801

fold change (FC) measured on Cn1cnnc1CC1(c2cccc(N3Cc4c(cc(CN5CCOC6(CCC6)C5)cc4C(F)(F)F)C3=O)c2)COC1 = >=1.001

fold change (FC) measured on C[C@H](Cc1nncn1C)c1cccc(N2Cc3c(cc(CN4C[C@@H](F)[C@@H](O)C4)cc3C(F)(F)F)C2=O)c1 = >=1.001

---

Hi there, I'd appreciate the recorded fold change (FC) for every entry that follows.
assay: Induction of anti-CD3 antibodies-stimulated human T cell activation at 8 uM assessed fold increase in CD25 expression measured by ELISA assay; type: functional, T cell line; note: reference of the scale not given here
When you answer, write just the number.

fold change (FC) measured on C[C@H](Sc1nncn1C)c1cccc(N2Cc3c(ccnc3Cl)C2=O)c1 = 0.601

fold change (FC) measured on Cc1cnnn1C[C@@H](C)c1cccc(NC(=O)c2cccc(C(F)(F)F)n2)c1 = 0.801

fold change (FC) measured on COc1cc(C(=O)Nc2cccc([C@H](C)Cc3nncn3C)c2)nc(C(F)(F)F)c1 = 0.801

fold change (FC) measured on CC(Sc1nncn1C)c1cccc(NC(=O)c2ccc3ccccc3n2)c1 (stereo not given) = 0.601

---

assay: Induction of anti-CD3/CD28 antibodies-stimulated human CD8+ T cell activation at 1.11 uM assessed fold increase in cell proliferation measured by flow cytometry analysis; type: functional, T cell line
REPORTED PROPERTY: fold change (FC)

C[C@H](Cc1nncn1C)c1cccc(N2Cc3c(ccnc3C3CC3)C2=O)c1    <=2
C[C@H](Cc1nncn1C)c1cccc(N2Cc3c(cccc3C(F)(F)F)C2=O)c1.Cl    <=2
C[C@H](Cc1nncn1C)c1cccc(N2Cc3c(cc(CN4CC[C@H](F)C4)cc3C(F)(F)F)C2=O)c1    >4
C[C@@H](c1cc2c(c(C(F)(F)F)c1)CN(c1cccc(C3(Cc4nncn4C)COC3)c1)C2=O)N1CC[C@H](F)C1    >4

---

assay: Induction of activation of human CD56+ CD3- NK cells co-cultured with human K562 cells in 1:1 ratio and assessed as increase in IFN-gamma secretion at 0.625 uM measured by ELISA assay; type: functional, Natural killer cell
REPORTED PROPERTY: fold change (FC)
When you answer, write just the number.

fold change (FC) measured on C[C@H](Cc1nncn1C)c1cccc(NC(=O)c2cc3cc(N4CCNCC4)ccc3cn2)c1.Cl = 1.01

fold change (FC) measured on C[C@H](Cc1nncn1C)c1cccc(N2Cc3c(cc(CN4CC[C@H](F)C4)cc3C(F)(F)F)C2=O)c1 = 2.01

fold change (FC) measured on C[C@H](Cc1nncn1C)c1cccc(NC(=O)c2n[nH]c3c2CCC3)c1 = 1.01

fold change (FC) measured on Cc1cc(C(=O)Nc2cccc([C@H](C)Cc3nncn3C)c2)nc(C2CC2)n1 = 2.01

fold change (FC) measured on Cn1cnnc1[C@@H]1C[C@@H]1c1cccc(N2Cc3c(ccnc3C(F)(F)F)C2=O)c1 = 1.01

fold change (FC) measured on C[C@H](Cc1nncn1C)c1cccc(N2Cc3c(ccnc3C3CC3)C2=O)c1 = 2.01
